Listed compounds paired with reported IC50
# Test system: MCF7
# method_description: Cytotoxicity against human MCF7 cells assessed as reduction in cell growth after 72 hrs by MTT assay
# Type: functional, cell-based
# settings: MCF7, 72 h
Answer with the number, then the unit.

Observe how each entry below is paired with its result.
Query: Provide measured IC50 value, entry: O=C(Nc1ccc(Oc2ccnc3[nH]ccc23)c(F)c1)c1nnn(-c2ccccc2F)c1C(F)(F)F
Response: 280 nM

Query: Provide measured IC50 value, entry: O=C(Nc1ccc(Oc2ccnc3[nH]ccc23)cc1)c1nnn(-c2ccccc2F)c1C(F)(F)F
Response: 290 nM

Query: Provide measured IC50 value, entry: Cc1c(C(=O)Nc2ccc(Oc3ccnc4[nH]ccc34)c(F)c2)nnn1-c1ccc(F)c(F)c1
Response: 820 nM

Query: Provide measured IC50 value, entry: COc1ccc(-n2nnc(C(=O)Nc3ccc(Oc4ccnc5[nH]ccc45)c(F)c3)c2C(F)(F)F)cc1
Response: 510 nM

Query: Provide measured IC50 value, entry: O=C(Nc1ccc(Oc2ccnc3[nH]ccc23)c(F)c1)c1nnn(-c2ccc(F)c(F)c2)c1C(F)(F)F
Response: 590 nM

Shifting focus to the compound that follows.
Query: Provide measured IC50 value, entry: COc1ccc(-n2nnc(C(=O)Nc3ccc(Oc4ccnc5[nH]ccc45)cc3)c2C(F)(F)F)cc1
Response: 580 nM

----------
# Tested on: MCF7
# method_description: Cytotoxicity against human MCF7 cells assessed as reduction in cell growth after 72 hrs by MTT assay
# Format: functional, cell-based
# settings: MCF7, 72 h
result_type: IC50 (nM)
API: value field is a number in nM; no unit string.

Observe how each entry below is paired with its result.
Query: Provide measured IC50 value, entry: O=C(Nc1ccc(Oc2ccnc3[nH]ccc23)cc1)c1nnn(-c2ccccc2)c1C(F)(F)F
Response: 260

Query: Provide measured IC50 value, entry: Cc1c(C(=O)Nc2ccc(Oc3ccnc4[nH]ccc34)c(F)c2)nnn1-c1ccccc1F
Response: 420

Shifting focus to the compound that follows.
Query: Provide measured IC50 value, entry: O=C(Nc1ccc(Oc2ccnc3[nH]ccc23)cc1)c1nnn(-c2ccc(F)c(F)c2)c1C(F)(F)F
Response: 690
